Below, each of the compounds is paired with its reported GI50 value.
- System: HOP-62
- Assay Summary: Cytotoxicity against HOP-62 human lung cancer cell line was determined
- Type: functional
Answer format: numeric, nM implied, no suffix.

Recorded result, O=C1c2cc3c(cc2-c2c1c1ccc([N+](=O)[O-])cc1c(=O)n2CCCCl)OCO3 , GI50: 410

--- query ---
Recorded result, NCCCn1c2c(c3ccc([N+](=O)[O-])cc3c1=O)C(=O)c1ccccc1-2 , GI50: 275

----------
- Test system: DU-145
- Assay Summary: Cytotoxicity against DU-145 human prostate cancer cell line was determined
- Type: functional
Below, each of the compounds is paired with its reported GI50 value.

Here's what some known entries look like.
Recorded result, [N-]=[N+]=NCCCn1c2c(c3ccccc3c1=O)C(=O)c1ccccc1-2 , GI50: 44700 nM

Recorded result, [N-]=[N+]=NCCCn1c2c(c3ccc([N+](=O)[O-])cc3c1=O)C(=O)c1ccccc1-2 , GI50: > 100000 nM

Recorded result, O=C1c2cc3c(cc2[C@@H]2[C@H]1c1ccc([N+](=O)[O-])cc1C(=O)N2CCCBr)OCO3 , GI50: < 10 nM

Further cases:
Recorded result, COc1cc2c(cc1OC)[C@H]1C(=O)c3cc4c(cc3[C@H]1N(CCCBr)C2=O)OCO4 , GI50: 30 nM

Recorded result, NCCCn1c2c(c3ccc([N+](=O)[O-])cc3c1=O)C(=O)c1cc3c(cc1-2)OCO3 , GI50: < 10 nM

Recorded result, O=C1c2ccccc2-c2c1c1ccc([N+](=O)[O-])cc1c(=O)n2CCCBr , GI50: > 100000 nM

Recorded result, NCCCn1c2c(c3ccc([N+](=O)[O-])cc3c1=O)C(=O)c1ccccc1-2 , GI50: 148 nM

Recorded result, [N-]=[N+]=NCCCn1c2c(c3ccc([N+](=O)[O-])cc3c1=O)C(=O)c1cc3c(cc1-2)OCO3 , GI50: < 10 nM

Recorded result, COc1cc2c3c(n(C)c(=O)c2cc1OC)-c1cc2c(cc1C3=O)OCO2 , GI50: 37000 nM

----------
- Test system: UACC-62
- Assay Summary: Cytotoxicity against UACC-62 human melanoma cancer cell line was determined
- Format: functional
Value Type: log10 of GI50 (log10 of the value in nM)
Please be aware that the numbers have been log10-transformed from GI50 in nM.

Recorded result, NCCCn1c2c(c3ccc([N+](=O)[O-])cc3c1=O)C(=O)c1ccccc1-2 , log10 of GI50: 2.57

Recorded result, O=C1c2ccccc2-c2c1c1ccc([N+](=O)[O-])cc1c(=O)n2CCCCl , log10 of GI50: 4.31

Recorded result, COc1cc2c3c(n(C)c(=O)c2cc1OC)-c1cc2c(cc1C3=O)OCO2 , log10 of GI50: 3.62

Recorded result, [N-]=[N+]=NCCCn1c2c(c3ccccc3c1=O)C(=O)c1ccccc1-2 , log10 of GI50: 4.29

Recorded result, CN1C(=O)c2cc([N+](=O)[O-])ccc2[C@H]2C(=O)c3cc4c(cc3[C@H]21)OCO4 , log10 of GI50: 1.41

----------
- Tested on: SN12C
- Assay Summary: Cytotoxicity against SN12C human renal cancer cell line was determined
- Format: functional
Value Type: GI50 (nM)
Answer format: numeric, nM implied, no suffix.

Recorded result, COc1cc2c(cc1OC)[C@H]1C(=O)c3cc4c(cc3[C@H]1N(CCCBr)C2=O)OCO4 , GI50: 30

--- query ---
Recorded result, NCCCn1c2c(c3ccccc3c1=O)C(=O)c1ccccc1-2 , GI50: 160

----------
- Test system: MDA-MB-435
- Assay Summary: Cytotoxicity against MDA-MB-435 human breast cancer cell line was determined
- Type: functional
Below, each of the molecules is paired with its reported GI50 value.

Recorded result, [N-]=[N+]=NCCCn1c2c(c3ccc([N+](=O)[O-])cc3c1=O)C(=O)c1cc3c(cc1-2)OCO3 , GI50: < 0.01 µM

Further cases:
Recorded result, O=C1c2cc3c(cc2[C@@H]2[C@H]1c1ccc([N+](=O)[O-])cc1C(=O)N2CCCBr)OCO3 , GI50: < 0.01 µM

Recorded result, [N-]=[N+]=NCCCn1c2c(c3ccc([N+](=O)[O-])cc3c1=O)C(=O)c1ccccc1-2 , GI50: > 100 µM

Recorded result, Nc1ccc2c3c(n(CCCCl)c(=O)c2c1)-c1cc2c(cc1C3=O)OCO2 , GI50: > 100 µM

Recorded result, O=C1c2ccccc2-c2c1c1ccc([N+](=O)[O-])cc1c(=O)n2CCCBr , GI50: > 100 µM

Recorded result, O=C1c2cc3c(cc2[C@@H]2[C@H]1c1ccc([N+](=O)[O-])cc1C(=O)N2CCCCl)OCO3 , GI50: < 0.01 µM

----------
Below, each of the compounds is paired with its reported log10 of GI50 value.
- Test system: UACC-62
- Assay Summary: Cytotoxicity against UACC-62 human melanoma cancer cell line was determined
- Type: functional
Please be aware that the numbers have been log10-transformed from GI50 in nM.

Here's what some known entries look like.
Recorded result, NCCCn1c2c(c3ccc([N+](=O)[O-])cc3c1=O)C(=O)c1cc3c(cc1-2)OCO3 , log10 of GI50: 1.23

Recorded result, NCCCn1c2c(c3ccccc3c1=O)C(=O)c1ccccc1-2 , log10 of GI50: 2.41

Recorded result, [N-]=[N+]=NCCCn1c2c(c3ccc([N+](=O)[O-])cc3c1=O)C(=O)c1ccccc1-2 , log10 of GI50: 4.65

Recorded result, COc1cc2c(cc1OC)[C@H]1C(=O)c3cc4c(cc3[C@H]1N(CCCBr)C2=O)OCO4 , log10 of GI50: 1.70

--- query ---
Recorded result, O=C1c2cc3c(cc2-c2c1c1ccc([N+](=O)[O-])cc1c(=O)n2CCCCl)OCO3 , log10 of GI50: 2.36

----------
Below, each of the molecules is paired with its reported GI50 value.
- Test system: SN12C
- Assay Summary: Cytotoxicity against SN12C human renal cancer cell line was determined
- Type: functional

Form: item Nc1ccc2c3c(n(CCCCl)c(=O)c2c1)-c1cc2c(cc1C3=O)OCO2 ; test system SN12C; GI50: > 100 µM

Form: item O=C1c2ccccc2-c2c1c1ccc([N+](=O)[O-])cc1c(=O)n2CCCBr ; test system SN12C; GI50: > 100 µM

--- query ---
Form: item NCCCn1c2c(c3ccc([N+](=O)[O-])cc3c1=O)C(=O)c1cc3c(cc1-2)OCO3 ; test system SN12C; GI50: < 0.01 µM

----------
- Tested on: UACC-62
- Assay Summary: Cytotoxicity against UACC-62 human melanoma cancer cell line was determined
- Format: functional
Value Type: GI50

Form: item O=C1c2cc3c(cc2[C@@H]2[C@H]1c1ccc([N+](=O)[O-])cc1C(=O)N2CCCBr)OCO3 ; test system UACC-62; GI50: < 10 nM

Form: item O=C1c2cc3c(cc2[C@@H]2[C@H]1c1ccc([N+](=O)[O-])cc1C(=O)N2CCCCl)OCO3 ; test system UACC-62; GI50: < 10 nM

Form: item O=C1c2ccccc2-c2c1c1ccc([N+](=O)[O-])cc1c(=O)n2CCCBr ; test system UACC-62; GI50: > 100000 nM

Form: item Nc1ccc2c3c(n(CCCCl)c(=O)c2c1)-c1cc2c(cc1C3=O)OCO2 ; test system UACC-62; GI50: > 100000 nM

Form: item [N-]=[N+]=NCCCn1c2c(c3ccc([N+](=O)[O-])cc3c1=O)C(=O)c1cc3c(cc1-2)OCO3 ; test system UACC-62; GI50: < 10 nM
